// data source = patent US20260216164A1

Target Entity: Helios (IKZF2) (Homo sapiens, UniProt Q96SW2+Q9UKS7)
Sequence (Q9UKS7 whole entry): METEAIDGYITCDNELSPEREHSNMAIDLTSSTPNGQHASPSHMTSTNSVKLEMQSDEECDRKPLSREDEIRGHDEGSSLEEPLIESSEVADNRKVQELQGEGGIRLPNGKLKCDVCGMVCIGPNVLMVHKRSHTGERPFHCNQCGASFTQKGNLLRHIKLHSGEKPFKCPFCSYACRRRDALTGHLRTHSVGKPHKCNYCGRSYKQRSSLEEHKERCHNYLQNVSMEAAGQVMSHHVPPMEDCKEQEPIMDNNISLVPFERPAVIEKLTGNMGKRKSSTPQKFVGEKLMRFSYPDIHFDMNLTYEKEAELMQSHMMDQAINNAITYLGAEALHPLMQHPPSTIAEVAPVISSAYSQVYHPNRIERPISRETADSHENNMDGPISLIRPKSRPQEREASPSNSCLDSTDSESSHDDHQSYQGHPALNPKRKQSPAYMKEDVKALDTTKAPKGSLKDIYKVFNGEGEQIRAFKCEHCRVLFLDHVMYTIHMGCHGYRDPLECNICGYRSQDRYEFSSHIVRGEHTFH
Sequence (Q96SW2 whole entry): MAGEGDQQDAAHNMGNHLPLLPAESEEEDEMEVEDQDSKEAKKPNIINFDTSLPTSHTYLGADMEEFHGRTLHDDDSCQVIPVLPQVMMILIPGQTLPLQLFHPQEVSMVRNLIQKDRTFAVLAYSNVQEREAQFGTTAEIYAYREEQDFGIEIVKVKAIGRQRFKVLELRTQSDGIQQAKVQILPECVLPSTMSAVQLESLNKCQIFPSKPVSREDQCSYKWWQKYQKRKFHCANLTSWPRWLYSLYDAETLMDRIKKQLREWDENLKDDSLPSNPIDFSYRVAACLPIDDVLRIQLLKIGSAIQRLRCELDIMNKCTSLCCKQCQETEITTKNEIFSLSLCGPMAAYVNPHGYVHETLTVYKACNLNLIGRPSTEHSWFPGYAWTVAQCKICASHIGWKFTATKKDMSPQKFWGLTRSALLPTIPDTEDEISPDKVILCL
Sequence (Q16531 whole entry partner): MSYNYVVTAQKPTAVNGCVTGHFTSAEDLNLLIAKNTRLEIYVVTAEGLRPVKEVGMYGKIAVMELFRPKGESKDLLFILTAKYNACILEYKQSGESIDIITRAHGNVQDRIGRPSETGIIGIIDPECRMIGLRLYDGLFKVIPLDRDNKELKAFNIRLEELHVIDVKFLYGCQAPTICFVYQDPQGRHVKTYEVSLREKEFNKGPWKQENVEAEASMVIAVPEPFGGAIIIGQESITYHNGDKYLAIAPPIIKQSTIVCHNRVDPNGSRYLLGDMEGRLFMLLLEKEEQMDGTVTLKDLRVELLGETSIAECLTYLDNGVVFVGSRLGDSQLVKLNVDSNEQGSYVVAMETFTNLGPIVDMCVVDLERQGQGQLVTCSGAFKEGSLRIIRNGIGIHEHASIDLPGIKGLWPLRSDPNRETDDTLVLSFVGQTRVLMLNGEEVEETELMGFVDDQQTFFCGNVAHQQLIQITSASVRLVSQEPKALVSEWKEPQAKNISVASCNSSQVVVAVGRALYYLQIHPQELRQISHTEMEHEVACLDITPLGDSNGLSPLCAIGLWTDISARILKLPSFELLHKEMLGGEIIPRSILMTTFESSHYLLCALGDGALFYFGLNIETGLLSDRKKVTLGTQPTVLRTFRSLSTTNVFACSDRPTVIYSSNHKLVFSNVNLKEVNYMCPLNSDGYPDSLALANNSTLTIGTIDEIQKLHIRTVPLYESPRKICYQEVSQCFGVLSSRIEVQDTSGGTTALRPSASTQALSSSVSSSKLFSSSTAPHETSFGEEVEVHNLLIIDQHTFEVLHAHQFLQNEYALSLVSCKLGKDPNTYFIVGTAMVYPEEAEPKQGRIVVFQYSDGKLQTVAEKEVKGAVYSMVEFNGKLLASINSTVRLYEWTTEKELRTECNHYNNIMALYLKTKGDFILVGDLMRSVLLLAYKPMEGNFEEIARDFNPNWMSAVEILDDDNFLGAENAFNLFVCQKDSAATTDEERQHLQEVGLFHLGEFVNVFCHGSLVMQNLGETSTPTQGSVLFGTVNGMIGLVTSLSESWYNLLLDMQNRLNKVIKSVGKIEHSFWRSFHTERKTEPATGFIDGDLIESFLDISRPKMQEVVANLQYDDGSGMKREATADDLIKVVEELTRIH
Assay Text: Screening of Helios protein degraders using Nano-Glo HiBiT cell line (HiBiT-IKZF2)
Assay type: cell-based
Assay Conditions: compound 10 μM, 6 hours, HiBiT-Helios knock-in Jurkat cells; read-out: HiBiT-IKZF2 Residual amount of Helios (%) 10 μM
// remaining activity at 10 µM lookup, one value per entry
# include the unit after the value

Cc1c(C(=O)N2CCC(O)(c3ccc4c(c3)CN(C3CCC(=O)NC3=O)C4=O)CC2)[nH]c2cc(Cl)ccc12 (stereo not drawn) [Compound 64]
8.1%

Task: Quick one: remaining activity at 10 µM of Cc1c(C(=O)N2CCC(c3ccc4c(c3)CN(C3CCC(=O)NC3=O)C4=O)CC2)[nH]c2c(F)c(Cl)ccc12 (stereo not drawn) [Compound 99] ?
Output: 14.6%

Task: Then this compound: Cc1c(C(=O)N2CCC(c3ccc4c(c3)CN(C3CCC(=O)NC3=O)C4=O)CC2)[nH]c2cc([N+](=O)[O-])c(Cl)cc12 (stereo not drawn) [Compound 84]
Output: 9.7%
